Below: compounds with IC50 recorded for Prostaglandin G/H synthase 1 (Ovis aries, UniProt P05979) in separate published works.
metricName: IC50 (µM)

[P] Cc1ccc(Cl)c(Nc2ccccc2C(=O)NCCBr)c1Cl
[Q] Cc1nc(-c2ccccc2)sc1-c1cc(C(F)(F)F)nn1-c1ccc(S(C)(=O)=O)cc1
[R] COc1ccnc(Nc2nn3c(SC)c(C#N)c(O)nc3c2C#N)c1
[S] CC(C)N1C(=O)[C@@H](Oc2ccccc2)[C@H]1c1ccc(S(C)(=O)=O)cc1 (relative stereo)
Sort ascending by IC50: all records listed above. List the labels according to the requested ordering. P, Q, R, S
(P: 0.07 µM, Q: 4.8 µM, R: 12.6 µM, S: 21.8 µM)

[I] CSc1ncc(-c2ccc(S(C)(=O)=O)cc2)n1-c1ccc(Cl)cc1
[II] NS(=O)(=O)c1ccc(-n2nc(C(F)(F)F)cc2-c2ccc(Cl)cc2)cc1CO
Lab note: check whether I or II has the lower measured IC50. Selection: enter the item's label. I

[1] O=C1OCC(c2ccccc2)=C1c1ccc(F)cc1
[2] CCOC(=O)[C@H](O)[C@@H](OCc1cnnn1[C@@H](CO)C(=O)OC)C(=O)OCC
Of the two listed items, which has the higher IC50? First: 1 Second: 2 Selection: enter the item's label. 2
(2: 110 µM, 1: 6 µM)

====

Below: compounds with pIC50 recorded for Prostaglandin G/H synthase 1 (Ovis aries) in separate published works.
pIC50: −log10 of the molar value.
metricName: pIC50

Reference set, count: 4
COc1cc2c(c3c1C=COC=C3)O[C@@H](C(C)(C)O)C2 = 4.63
CS(=O)(=O)c1ccc(/C=C(/C(=O)OCCO[N+](=O)[O-])c2ccccc2)cc1 = 5.21
CS(=O)(=O)c1ccc(-c2cc(-c3ccc(F)cc3)oc(=O)c2-c2ccccc2)cc1 = 4.96
CSc1ncc(-c2ccc(S(C)(=O)=O)cc2)n1-c1ccccc1 = 6.24

[P] COc1ccc2c(c1)c(CC(=O)NCCCO)c(C)n2C(=O)c1ccc(Cl)cc1
[Q] COc1cc(/C=C/C(=O)c2ccc(Nc3nc(N4CCOCC4)nc(N4CCOCC4)n3)cc2)cc(OC)c1OC
[R] CS(=O)(=O)Nc1ccc(C2=C(c3ccc(Br)cc3)C(=O)OC2)cc1
[S] CS(=O)(=O)c1ccc(C(=O)c2ccc(F)cc2)cc1
Sort the compounds on pIC50; start with the lowest figure. List the labels according to the requested ordering. S, P, R, Q

====

Below: molecules with IC50 recorded for Prostaglandin G/H synthase 1 (Ovis aries, UniProt P05979) in separate published works.
Target: Prostaglandin G/H synthase 1 (Ovis aries, UniProt P05979)
Sequence (P05979 whole entry): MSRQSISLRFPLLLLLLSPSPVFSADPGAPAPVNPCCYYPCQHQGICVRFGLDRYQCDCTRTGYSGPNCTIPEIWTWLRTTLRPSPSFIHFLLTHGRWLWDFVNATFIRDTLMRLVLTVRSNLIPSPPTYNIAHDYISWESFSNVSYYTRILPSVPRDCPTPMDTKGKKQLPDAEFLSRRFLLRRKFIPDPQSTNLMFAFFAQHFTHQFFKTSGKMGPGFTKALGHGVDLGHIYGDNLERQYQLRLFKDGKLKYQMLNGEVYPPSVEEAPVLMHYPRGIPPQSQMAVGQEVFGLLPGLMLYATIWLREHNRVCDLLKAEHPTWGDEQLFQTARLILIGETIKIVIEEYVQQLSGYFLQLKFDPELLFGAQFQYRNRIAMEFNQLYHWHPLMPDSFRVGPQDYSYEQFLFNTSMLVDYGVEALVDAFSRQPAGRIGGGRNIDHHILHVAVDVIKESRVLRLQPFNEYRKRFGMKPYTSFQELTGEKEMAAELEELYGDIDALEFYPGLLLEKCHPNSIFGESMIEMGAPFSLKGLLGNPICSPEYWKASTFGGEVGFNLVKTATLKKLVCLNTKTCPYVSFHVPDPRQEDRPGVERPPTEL
metricName: IC50 (µM)

CCCCC(=C(c1ccccc1)c1ccccc1)c1ccc(S(C)(=O)=O)cc1 = 9.1
COC(=O)CNC(=O)[C@@H](Cc1c[nH]c2ccccc12)NC(=O)C(=O)c1cn(S(=O)(=O)c2ccc(C)cc2)c2ccccc12 = 71.3
CC(C)c1cc(/C=C2\SC(N=C(N)N)=NC2=O)cc(C(C)C)c1O = 0.22
CC(C)C(=O)c1c(O)cc(O)cc1O = 3.8
Cc1cc(C)cc(-c2ccc(C(C)C(=O)O)cc2F)c1 (stereo unspecified) = 15

[a] CSC1=NC(=O)/C(=C/c2cc(C(C)(C)C)c(O)c(C(C)(C)C)c2)S1
[b] Cc1c(-c2nn(-c3ccccc3)cc2/C=N/O)nnn1-c1ccc(S(N)(=O)=O)cc1
Of the two listed items, which has the higher IC50? First: a Second: b Selection: enter the item's label. a
(a: 63 µM, b: 13.9 µM)
